Would you kindly list Kd for each of these binders?
Molecular target: H3K9me3 peptide
Test: fluorescence polarization, FITC-peptide 0.5 nM
Output should be the measured figure followed by the unit it is expressed in.

Example results:
Cbx7 Q9D chromodomain (tags removed) (designed binder) SAIGEDVFAVESIRKKRVRKGKVEYLVKWKGWPPKYSTWEPEEHILDPRLVMAYEEKEERDRASGYRKRGPK | 10 µM
Cbx8.VD chromodomain (tags removed) (designed binder) GEDVFAAEALLKRRIRKGRMEYLVKWEGWSQKYSTWEPEENILDARLLAAFEEREREMELYGP | 20 µM
Cbx7.V1 chromodomain (tags removed) (designed binder) SAIGDDIFAVESIRKKRVRKGKVEYLVKWEGWPLEYSTWEPEEHILDPRLVMAYEEKEERDRASGYRKRGPK | 7 µM

We now examine a further binder.
## Task Dear colleague, I am looking for the recorded Kd of the following binder: Cbx7.VD chromodomain (tags removed) (designed binder) SAIGEDVFAVESIRKKRVRKGKVEYLVKWEGWPPKYSTWEPEEHILDPRLVMAYEEKEERDRASGYRKRGPK
## Result 8 µM
